All values here come from patent US20240201167A1.

Molecular target: T1, human B7-1 R63D on cells (Homo sapiens, UniProt P33681 35-280)
T1 construct: mCherry-tagged point mutant; also called ARG63 ASP
T1 chain: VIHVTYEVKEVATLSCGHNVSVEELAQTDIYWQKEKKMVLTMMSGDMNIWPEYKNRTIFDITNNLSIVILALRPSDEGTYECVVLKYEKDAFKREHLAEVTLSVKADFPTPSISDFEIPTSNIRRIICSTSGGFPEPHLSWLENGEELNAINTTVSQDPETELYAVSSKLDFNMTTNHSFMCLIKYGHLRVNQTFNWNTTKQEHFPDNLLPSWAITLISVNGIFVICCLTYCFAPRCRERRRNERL
Experiment: cell-cell binding, flow cytometry; percent of the wild-type pair
measure: percent binding
Respond with the figure and its unit, in that order.

binder	percent binding
human p75NTR L165K on cells (receptor, Fluorescent-tagged point mutant; also called LEU165K*) KEACPTGLYTHSGECCKACNLGEGVAQPCGANQTVCEPCLDSVTFSDVVSATEPCKPCTECVGLQSMSAPCVEADDAVCRCAYGYYQDETTGRCEACRVCEAGSGLVFSCQDKQNTVCEECPDGTYSDEANHVDPCKPCTVCEDTERQLRECTRWADAECEEIPGRWITRSTPPEGSDSTAPSTQEPEAPPEQDLIASTVAGVVTTVMGSSQPVVTRGTTDNLIPVYCSILAAVVVGLVAYIAFKRWNSCKQNKQGANSRPVNQTPPPEGEKLHSDSGISVDSQSLHDQQPHTQTASGQALKGDGGLYSSLPPAKREEVEKLLNGSAGDTWRHLAGELGYQPEHIDSFTHEACPVRALLASWATQDSATLDALLAALRRIQRADLVESLCSESTATSPV	18%

Entry under review: human p75NTR P150K on cells (receptor, Fluorescent-tagged point mutant) KEACPTGLYTHSGECCKACNLGEGVAQPCGANQTVCEPCLDSVTFSDVVSATEPCKPCTECVGLQSMSAPCVEADDAVCRCAYGYYQDETTGRCEACRVCEAGSGLVFSCQDKQNTVCEECKDGTYSDEANHVDPCLPCTVCEDTERQLRECTRWADAECEEIPGRWITRSTPPEGSDSTAPSTQEPEAPPEQDLIASTVAGVVTTVMGSSQPVVTRGTTDNLIPVYCSILAAVVVGLVAYIAFKRWNSCKQNKQGANSRPVNQTPPPEGEKLHSDSGISVDSQSLHDQQPHTQTASGQALKGDGGLYSSLPPAKREEVEKLLNGSAGDTWRHLAGELGYQPEHIDSFTHEACPVRALLASWATQDSATLDALLAALRRIQRADLVESLCSESTATSPV . Reported percent binding?
14%
